Molecular target: recombinant α1β2γ2 GABAA receptors (Homo sapiens, UniProt P14867+P47870)
Construct: expressed in transfected cells
Sequence (P14867 28-456): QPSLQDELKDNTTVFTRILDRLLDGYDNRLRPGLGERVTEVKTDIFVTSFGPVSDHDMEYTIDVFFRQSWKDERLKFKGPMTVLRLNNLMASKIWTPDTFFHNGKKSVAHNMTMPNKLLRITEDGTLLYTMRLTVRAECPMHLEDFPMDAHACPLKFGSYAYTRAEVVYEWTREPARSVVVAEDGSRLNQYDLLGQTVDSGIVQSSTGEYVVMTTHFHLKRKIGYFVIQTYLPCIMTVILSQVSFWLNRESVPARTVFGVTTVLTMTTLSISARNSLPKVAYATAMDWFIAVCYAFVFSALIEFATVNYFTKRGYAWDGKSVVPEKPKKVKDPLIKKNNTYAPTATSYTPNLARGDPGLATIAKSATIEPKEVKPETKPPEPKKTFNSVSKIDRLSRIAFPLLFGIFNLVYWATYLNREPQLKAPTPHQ
Sequence (P47870 25-512 limits assumed): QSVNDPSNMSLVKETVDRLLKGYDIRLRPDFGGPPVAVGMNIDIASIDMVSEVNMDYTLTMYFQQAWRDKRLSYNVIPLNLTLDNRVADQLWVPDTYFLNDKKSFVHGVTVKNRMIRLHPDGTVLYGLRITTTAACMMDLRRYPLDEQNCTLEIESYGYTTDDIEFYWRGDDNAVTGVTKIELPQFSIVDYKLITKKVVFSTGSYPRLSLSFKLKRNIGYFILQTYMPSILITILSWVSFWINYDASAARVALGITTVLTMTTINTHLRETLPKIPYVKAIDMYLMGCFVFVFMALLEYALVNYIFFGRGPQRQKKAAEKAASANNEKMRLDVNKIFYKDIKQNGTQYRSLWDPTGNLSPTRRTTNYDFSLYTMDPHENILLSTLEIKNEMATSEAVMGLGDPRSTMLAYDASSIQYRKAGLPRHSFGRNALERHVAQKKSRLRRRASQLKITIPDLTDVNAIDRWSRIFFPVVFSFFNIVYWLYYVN
Sequence (P18507 40-475 partner): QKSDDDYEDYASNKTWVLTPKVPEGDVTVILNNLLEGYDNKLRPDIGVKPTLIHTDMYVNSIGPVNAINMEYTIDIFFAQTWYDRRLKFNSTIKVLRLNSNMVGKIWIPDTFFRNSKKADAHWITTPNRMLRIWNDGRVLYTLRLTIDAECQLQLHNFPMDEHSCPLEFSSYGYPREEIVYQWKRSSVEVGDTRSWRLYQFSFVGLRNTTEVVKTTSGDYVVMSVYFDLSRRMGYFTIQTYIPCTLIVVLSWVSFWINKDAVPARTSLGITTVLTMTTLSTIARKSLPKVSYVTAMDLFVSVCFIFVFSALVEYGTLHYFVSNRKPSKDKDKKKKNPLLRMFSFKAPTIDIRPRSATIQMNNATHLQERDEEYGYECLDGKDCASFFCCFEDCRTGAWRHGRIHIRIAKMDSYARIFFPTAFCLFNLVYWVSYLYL
Test: Patch clamp electrophysiology, QPatch, LTK cells
Type: cell-based
Settings: 10 μM test article, GABA EC20 = 2 μM, read-out: GABA (α1β2γ2) Qpatch in Ltk, % efficacy at 10 μM

# chemical.smiles, Emax at 10 µM
measured = [
    ("C[C@@]1(O)CC[C@H]2[C@H](CC[C@@H]3[C@@H]2CC[C@]2(C)[C@@H](C(=O)Cn4cnnn4)CC[C@@H]32)C1", "> 500%"),
    ("CC[C@@]1(O)CC[C@H]2[C@H](CC[C@@H]3[C@@H]2CC[C@]2(C)[C@@H](C(=O)Cn4ccnn4)CC[C@@H]32)C1", "100 to 500%"),
    ("C[C@H]1C[C@H]2[C@@H](CC[C@@H]3[C@@H]2CC[C@]2(C)[C@@H](C(=O)Cn4nccn4)CC[C@@H]32)C[C@]1(C)O", "100 to 500%"),
]

---

Molecular target: [35S]-TBPS binding, rat brain cortical membranes (GABA receptor complex)
Test: [35S]-TBPS binding (steroid inhibition of TBPS binding)
Settings: in the presence of 5 μM GABA, read-out: 35S-TBPS Radioligand Displacement
pIC50: −log10 of the molar value.
quantity.measured: pIC50

# chemical.smiles, observed.value
rows = [
    ("CO[C@H]1C[C@H]2[C@@H](CC[C@@H]3[C@@H]2CC[C@]2(C)[C@@H](C(=O)Cn4ccnn4)CC[C@@H]32)C[C@]1(C)O", "6.30 to 7.00"),
    ("C[C@]12CC[C@H]3[C@@H](CC[C@H]4C[C@@](O)(CF)CC[C@@H]43)[C@@H]1CC[C@@H]2C(=O)Cn1cnnn1", "< 6.30"),
    ("CCOC[C@@]1(O)CC[C@H]2[C@H](CC[C@@H]3[C@@H]2CC[C@]2(C)[C@@H](C(=O)Cn4nnc(C)n4)CC[C@@H]32)C1", "< 6.30"),
    ("C[C@]12CC[C@H]3[C@@H](CC[C@@H]4C[C@@](O)(CF)CC[C@@H]43)[C@@H]1CC[C@@H]2C(=O)Cn1ccnn1", "6.30 to 7.00"),
    ("C[C@@H]1C[C@H]2[C@@H](CC[C@@H]3[C@@H]2CC[C@]2(C)[C@@H](C(=O)Cn4nccn4)CC[C@@H]32)C[C@]1(C)O", "7.30 to 9.00"),
    ("C[C@@]1(O)CC[C@@H]2[C@H]3CC[C@]4(C)[C@@H](C(=O)Cn5ccnn5)CC[C@H]4[C@@H]3C[C@@H](F)[C@@H]2C1", "< 6.30"),
    ("C[C@@]1(O)CC[C@H]2[C@H](CC[C@@H]3[C@@H]2CC[C@]2(C)[C@@H](C(=O)Cn4cncn4)CC[C@@H]32)C1", "6.30 to 7.00"),
    ("COC[C@@]1(O)CC[C@H]2[C@@H](CC[C@@H]3[C@@H]2CC[C@]2(C)[C@@H](C(=O)Cn4cnnn4)CC[C@@H]32)C1", "6.30 to 7.00"),
    ("Cc1nnn(CC(=O)[C@H]2CC[C@H]3[C@@H]4CC[C@@H]5C[C@](C)(O)CC[C@@H]5[C@H]4CC[C@]23C)n1", "7.30 to 9.00"),
    ("CO[C@@H]1C[C@@H]2[C@H](CC[C@]3(C)[C@@H](C(=O)Cn4nccn4)CC[C@@H]23)[C@H]2CC[C@@](C)(O)C[C@H]21", "< 6.30"),
    ("C[C@@]1(O)CC[C@H]2[C@H](CC[C@@H]3[C@@H]2CC[C@]2(C)[C@@H](C(=O)Cn4ccnn4)CC[C@@H]32)C1", "7.30 to 9.00"),
    ("COC[C@@]1(O)CC[C@H]2[C@H](CC[C@@H]3[C@@H]2CC[C@]2(C)[C@@H](C(=O)Cn4cnnn4)CC[C@@H]32)C1", "6.30 to 7.00"),
    ("C[C@@]1(O)CC[C@@H]2[C@H]3CC[C@]4(C)[C@@H](C(=O)Cn5nccn5)CC[C@H]4[C@@H]3C[C@@H](F)[C@H]2C1", "7.00 to 7.30"),
]
